Listed compounds paired with reported IC50
# study system: indoleamine 2,3-dioxygenase (IDO) (Homo sapiens)
# Sequence (P14902 whole entry): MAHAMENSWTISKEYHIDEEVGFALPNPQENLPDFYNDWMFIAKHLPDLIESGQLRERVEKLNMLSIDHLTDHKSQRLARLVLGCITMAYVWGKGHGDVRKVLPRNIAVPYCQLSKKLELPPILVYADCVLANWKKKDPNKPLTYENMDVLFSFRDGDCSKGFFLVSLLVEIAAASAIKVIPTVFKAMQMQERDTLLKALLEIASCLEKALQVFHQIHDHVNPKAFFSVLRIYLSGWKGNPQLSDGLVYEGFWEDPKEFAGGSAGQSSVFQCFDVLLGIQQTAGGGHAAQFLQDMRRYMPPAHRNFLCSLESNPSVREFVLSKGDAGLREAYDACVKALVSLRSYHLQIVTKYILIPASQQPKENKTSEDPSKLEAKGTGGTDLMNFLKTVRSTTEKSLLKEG
# protocol: HeLa cell-based indoleamine 2,3-dioxygenase (IDO) assay (kynurenine production)
# run parameters: HeLa cells, IFNγ 25 ng/mL, 48 hour incubation, absorbance at 480 nm
parameter measured: IC50 (nM)

{"columns": ["compound", "study system", "observed result"],
 "data": [
  ["CC[C@H](c1nc2ncc(Cl)cc2[nH]1)[C@H]1CC[C@@H](c2ccnc3ccc(F)cc32)CC1 (single isomer, unassigned) [Example 21-4]", "indoleamine 2,3-dioxygenase (IDO) (Homo sapiens)", 89.7],
  ["CCC(c1nc2ncc(Cl)cc2[nH]1)[C@H]1CC[C@@H](c2ccnc(F)c2C)CC1 (single isomer, unassigned) [Example 24-1]", "indoleamine 2,3-dioxygenase (IDO) (Homo sapiens)", 375],
  ["Cc1ccc2nc([C@H](C)[C@H]3CC[C@@H](c4ccnc5ccc(F)cc54)CC3)cn2n1 [Example 30]", "indoleamine 2,3-dioxygenase (IDO) (Homo sapiens)", 96.6],
  ["C=CC[C@@H](c1nc2ccc(Cl)cc2[nH]1)[C@H]1CC[C@@H](c2ccnc3ccc(F)cc32)CC1 [Example 32]", "indoleamine 2,3-dioxygenase (IDO) (Homo sapiens)", 2.8]
]}
